- test-name: Biodistribution study in LNCaP tumor-bearing mice (Th227 counted in organs)
- Assay type: in vivo, SCID mice
- cond: 1 hr; 1500 kBq/kg

{"compound": "O=C([O-])CN1CCN(CC(=O)[O-])CCN(CC(=O)NCC2CCC(C(=O)NC(Cc3ccc4ccccc4c3)C(=O)NCCCCC(NC(=O)NC(CCC(=O)O)C(=O)O)C(=O)O)CC2)CCN(CC(=O)[O-])CC1.[227Th+4] (stereo not shown) [Example 1-B-227Th]", "Th-227 in bone": "5.16% ID Th-227/g organ"}

###

- test-name: Biodistribution study in LNCaP tumor-bearing mice (Th227 counted in organs)
- Format: in vivo, SCID mice
- cond: 96 h; 1500 kBq/kg
Examples of compounds with documented Th-227 in Liver follow.

{"compound": "Cc1cc(C(=O)NCCN(CCCN(CCNC(=O)c2cc(C)n(CC(=O)O)c(=O)c2[O-])CCNC(=O)c2cc(C)n(CC(=O)NCC3CCC(C(=O)NC(Cc4cnc5ccccc5c4)C(=O)NCCCCC(NC(=O)NC(CCC(=O)O)C(=O)O)C(=O)O)CC3)c(=O)c2[O-])CCNC(=O)c2cc(C)n(CC(=O)NCC3CCC(C(=O)NC(Cc4cnc5ccccc5c4)C(=O)NCCCCC(NC(=O)NC(CCC(=O)O)C(=O)O)C(=O)O)CC3)c(=O)c2[O-])c([O-])c(=O)n1CC(=O)O.[227Th+4] (stereo not shown) [Example 22-C dimer-227Th]", "Th-227 in Liver": "0.31% ID Th-227/g organ"}
{"compound": "O=C([O-])CN1CCN(CC(=O)[O-])CCN(CC(=O)NCC2CCC(C(=O)NC(Cc3ccc4ccccc4c3)C(=O)NCCCCC(NC(=O)NC(CCC(=O)O)C(=O)O)C(=O)O)CC2)CCN(CC(=O)[O-])CC1.[227Th+4] [Example 1-B-D-227Th]", "Th-227 in Liver": "0.31% ID Th-227/g organ"}
{"compound": "O=C([O-])CN1CCN(CC(=O)[O-])CCN(CC(=O)NCc2ccc(C(=O)N[C@@H](Cc3ccc4ccccc4n3)C(=O)NCCCC[C@H](NC(=O)N[C@@H](CCC(=O)O)C(=O)O)C(=O)O)nc2)CCN(CC(=O)[O-])CC1.[227Th+4] [Example 34-B-227Th]", "Th-227 in Liver": "0.19% ID Th-227/g organ"}
{"compound": "O=C([O-])CN1CCN(CC(=O)[O-])CCN(CC(=O)NCC2CCC(C(=O)NC(Cc3ccc4ccccc4c3)C(=O)NCCCCC(NC(=O)NC(CCC(=O)O)C(=O)O)C(=O)O)CC2)CCN(CC(=O)[O-])CC1.[227Th+4] (stereo not shown) [Example 1-B-227Th]", "Th-227 in Liver": "1.56% ID Th-227/g organ"}

###

- test-name: Biodistribution study in LNCaP tumor-bearing mice (Th227 counted in organs)
- Format: in vivo, SCID mice
- cond: 1 hr; 1500 kBq/kg
Examples of compounds with documented Th-227 in kidney follow.

{"compound": "O=C([O-])CN1CCN(CC(=O)[O-])CCN(CC(=O)NCC2CCC(C(=O)NC(Cc3ccc4ccccc4c3)C(=O)NCCCCC(NC(=O)NC(CCC(=O)O)C(=O)O)C(=O)O)CC2)CCN(CC(=O)[O-])CC1.[227Th+4] (stereo not shown) [Example 1-B-227Th]", "Th-227 in kidney, % ID Th-227/g organ": 38.11}
{"compound": "O=C([O-])CN1CCN(CC(=O)[O-])CCN(CC(=O)NCc2ccc(C(=O)N[C@@H](Cc3ccc4ccccc4n3)C(=O)NCCCC[C@H](NC(=O)N[C@@H](CCC(=O)O)C(=O)O)C(=O)O)nc2)CCN(CC(=O)[O-])CC1.[227Th+4] [Example 34-B-227Th]", "Th-227 in kidney, % ID Th-227/g organ": 69.22}
{"compound": "O=C([O-])CN1CCN(CC(=O)[O-])CCN(CC(=O)NCC2CCC(C(=O)NC(Cc3ccc4ccccc4c3)C(=O)NCCCCC(NC(=O)NC(CCC(=O)O)C(=O)O)C(=O)O)CC2)CCN(CC(=O)[O-])CC1.[227Th+4] [Example 1-B-D-227Th]", "Th-227 in kidney, % ID Th-227/g organ": 4.11}
{"compound": "Cc1cc(C(=O)NCCN(CCCN(CCNC(=O)c2cc(C)n(CC(=O)O)c(=O)c2[O-])CCNC(=O)c2cc(C)n(CC(=O)NCC3CCC(C(=O)NC(Cc4cnc5ccccc5c4)C(=O)NCCCCC(NC(=O)NC(CCC(=O)O)C(=O)O)C(=O)O)CC3)c(=O)c2[O-])CCNC(=O)c2cc(C)n(CC(=O)NCC3CCC(C(=O)NC(Cc4cnc5ccccc5c4)C(=O)NCCCCC(NC(=O)NC(CCC(=O)O)C(=O)O)C(=O)O)CC3)c(=O)c2[O-])c([O-])c(=O)n1CC(=O)O.[227Th+4] (stereo not shown) [Example 22-C dimer-227Th]", "Th-227 in kidney, % ID Th-227/g organ": 96.67}
